B1: RTN1 (parent)
chain: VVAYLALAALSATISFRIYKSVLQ

# Variants of: B1
# assay-overview: protein stability index of a GFP-peptide fusion (GPS, HEK-293T) (PSI 1-6); higher = more stable;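 also: lentivirally expressed fusions sorted by FACS into six bins by GFP to DsRed ratio, PSI derived from sequencing read proportions per bin multiplied by bin number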
# condition-description: c terminus: a fixed tail appended
attribute-measured: protein stability index
Simply state the number, no unit and no words.

- residues: "VVAYLALAALSATISFRIYKVVLQ [S21V]"
  protein stability index: 4.53

Task item: I'd like to know its protein stability index. The variant in question is VVAYLALALLSATISFRIYKSVLQ [A9L]
Reply: 2.44
